For reference, the following IC50 results for Epidermal growth factor receptor (Homo sapiens, UniProt P00533) were taken from various sources.

- compound: "CS(=O)(=O)CCN(O)Cc1ccc(-c2ccc3ncnc(Nc4ccc(OCc5cccc(F)c5)c(Cl)c4)c3c2)o1"
  IC50: "72 nM"
- compound: "CN1CCN(C2CCN(c3ccc(Nc4nc(NC5CCOCC5)c(-c5ccncc5)nc4C(N)=O)cc3)CC2)CC1"
  IC50: "> 300 nM"
- compound: "COCCCCNC/C=C/C(=O)N1CCOc2c1ccc1ncnc(Nc3ccc(Oc4ccccc4F)cc3)c21"
  IC50: "50 to 500 nM"
- compound: "Cc1ccc(Oc2ccc(Nc3ncnc4sc5c(c34)CCN(C(=O)/C=C/CN3CCCC3C(N)=O)C5)cc2C)cn1 (stereo not shown)"
  IC50: "1000 to 10000 nM"
- compound: "COc1ccccc1C(=O)NCc1ccc(-n2nc(C3CCCC3)c3ncnc(N)c32)cc1"
  IC50: "10 to 100 nM"

For `COc1cc(Nc2nc(Nc3cccc4c3N(S(C)(=O)=O)CC4)c3cc[nH]c3n2)c(F)cc1N1CCC(N2CCN(C)CC2)CC1` on Epidermal growth factor receptor (Homo sapiens, UniProt P00533), measured IC50 was 22.1 nM

For `CCC(=O)N1CCC[C@@H](Nc2n[nH]c3ncnc(Oc4ccc(Oc5ccccc5)cc4)c23)C1` on Epidermal growth factor receptor (Homo sapiens, UniProt P00533), measured IC50 was < 100 nM

---

For reference, the following IC50 results for Epidermal growth factor receptor (Homo sapiens, UniProt P00533) were taken from various sources.

Answered examples (10):
- compound: "O=C(COc1ccc2ncnc(Nc3ccc(F)c(Cl)c3)c2c1)NO"
  result: "< 100 nM"
- compound: "CCc1cc(Nc2ncc(Br)c(Nc3ccc(-c4ccccc4)c(C)c3P(C)(C)=O)n2)c(OC)cc1N1CCC(N2CCN(C)CC2)CC1"
  result: "12.3 nM"
- compound: "COc1cc(C)cc(-c2nc(C(C)C)sc2-c2ccnc(Nc3ccc(N4CCOCC4)nc3)n2)c1"
  result: "> 1000 nM"
- compound: "O=S(=O)(Nc1cc(-c2nc(N3CCCC3)oc2-c2ccnc(Nc3ccc(N4CCOCC4)c(F)c3)n2)ccc1F)c1ccccc1F"
  result: "> 1000 nM"
- compound: "COc1ccc(F)cc1C(=O)NCc1ccc(-c2nn(CC(F)(F)F)c3ncnc(N)c23)cc1"
  result: "> 10000 nM"
- compound: "CCc1cc(Nc2ncc(Br)c(Nc3ccc(-c4cn(C)nc4C#N)cc3P(C)(C)=O)n2)c(OC)cc1N1CCC(N2CCN(C)CC2)CC1"
  result: "43.1 nM"
- compound: "COc1cc(C2CCN(CCN(C)C)CC2)c(C)cc1Nc1nc(Nc2cccc3c2N(S(C)(=O)=O)CC3)c2cc[nH]c2n1"
  result: "433 nM"
- compound: "COc1ccccc1C(=O)NCc1ccc(-c2nn(C3CCC(=O)CC3)c3ncnc(N)c23)cc1"
  result: "100 to 1000 nM"
- compound: "CC(C)(O)Cn1/c(=N/C(=O)c2ccnc(Oc3cccc(O)c3C=O)c2)[nH]c2ccc(CN3CCOCC3)cc21"
  result: "13.5 nM"
- compound: "CCc1noc2c1/C=C/c1n[nH]c3ccc(cc13)-c1cnn(C)c1O[C@@H](C)CN(C)C2"
  result: "752 nM"

The compound listed as `CCN1CCC(Nc2ccc3c(c2)/C(=C(\c2ccc(F)cc2)c2ncc[nH]2)C(=O)N3)CC1` shows IC50 equal to 500 to 5000 nM

The compound listed as `C#Cc1cnc(Nc2ccc(N3CCC(N4CCN(C)CC4)CC3)cc2OC)nc1Nc1cccc2c1N(S(C)(=O)=O)CC2` shows IC50 equal to 9.3 nM

The compound listed as `CN(C)CCCC(=O)N[C@@H]1CCCN(c2n[nH]c3nccc(Oc4ccc(C(=O)Nc5cc(C(F)(F)F)ccn5)cc4)c23)C1` shows IC50 equal to > 10000 nM

The compound listed as `CCNC(=O)N1CCC[C@@H](Nc2n[nH]c3nccc(Oc4ccc(C(=O)Nc5cc(C#N)ccn5)cc4)c23)C1` shows IC50 equal to < 100 nM

The compound listed as `CN(C)C/C=C/C(=O)N1CCC[C@@H]1Cn1nc(-c2ccc(Oc3ccccc3)cc2)c2c(N)ncnc21` shows IC50 equal to 18.9 nM

The compound listed as `CCN1CCC(Nc2ccc3c(c2)/C(=C(\c2cccc(F)c2)c2ncn[nH]2)C(=O)N3)CC1` shows IC50 equal to > 5000 nM

The compound listed as Cc1ccc(Oc2ccc(Nc3ncnc4sc5c(c34)C(C)N(C(=O)/C=C/CN(C)C)C5)cc2C)cn1 (stereo not shown) shows IC50 equal to > 10000 nM

The compound listed as Cc1ccc(Oc2ccc(Nc3ncnc4sc5c(c34)CCN(C(=O)/C=C/CN3CC4CCC3C4)C5)cc2C)cn1 (stereo not shown) shows IC50 equal to > 10000 nM

The compound listed as `C=CC(=O)Nc1ccc(OC)c(Nc2cc(-c3[nH]c(SC)nc3-c3cccc(NC(=O)c4ccccc4CN4Cc5ccccc5C4=O)c3)ccn2)c1` shows IC50 equal to 701 nM

The compound listed as `CN1CCN(C2CCN(c3ccc(Nc4nc(NC5CC5)c(-c5cccc6[nH]ccc56)nc4C(N)=O)cc3)CC2)CC1` shows IC50 equal to 0.22 nM

The compound listed as `C=CC(=O)N1CCC[C@@H](n2nc(-c3ccc(C(=O)Nc4ccccn4)cc3)c3c(N)ncc(C#N)c32)C1` shows IC50 equal to 1.8 nM

The compound listed as `C=CC(=O)Nc1cc(-c2c(-c3cccc(N4CCN(C(C)=O)CC4)c3)[nH]c3nccc(Cl)c23)ccc1C` shows IC50 equal to ≤ 100 nM

The compound listed as `CCNC(=O)N1CCC[C@@H](Nc2n[nH]c3nccc(Oc4ccc(C(=O)Nc5cc(C(F)(F)F)ccn5)cc4)c23)C1` shows IC50 equal to 1000 to 10000 nM

The compound listed as `C=CC(=O)Nc1cc(-c2c(-c3ccc(N4CCN(C)CC4)cc3)[nH]c3ncc(C(=O)OC4CCC4)cc23)ccc1C` shows IC50 equal to ≤ 100 nM

The compound listed as `O=C(Nc1cc(C(F)(F)F)ccn1)c1ccc(Oc2ccnc3[nH]nc(N[C@@H]4CCCN(C(=O)C5CC5)C4)c23)cc1` shows IC50 equal to 1000 to 10000 nM

The compound listed as `C#Cc1cccc(Nc2ncnc3ccc(OCCCCCC(=O)NO)cc23)c1` shows IC50 equal to 100 to 1000 nM

The compound listed as `CC(C)c1ccc(N2CC(CS(C)(=O)=O)C2)c2cnc(Nc3ccnc(Oc4cccc(O)c4C=O)n3)cc12` shows IC50 equal to > 1000 nM

The compound listed as `C=CC(=O)N1CCc2c(sc3ncnc(Nc4ccc(Oc5cccnc5)c(C)c4)c23)C1` shows IC50 equal to 1000 to 10000 nM
